Origin of values: patent US20220204585A1

binders and their reported Absorbance at 450 nM
target: T1, CD11b A-domain CD11bA WT (WT residues 132-321), construct BZ348007 (human, UniProt P11215 148-337); test: counterscreen phage ELISA on coated antigen
T1 construct: Residues numbered on mature CD11b (signal peptide of 16 residues removed); also called His-TEV-CD11b
T1 sequence (P11215 148-337 limits assumed): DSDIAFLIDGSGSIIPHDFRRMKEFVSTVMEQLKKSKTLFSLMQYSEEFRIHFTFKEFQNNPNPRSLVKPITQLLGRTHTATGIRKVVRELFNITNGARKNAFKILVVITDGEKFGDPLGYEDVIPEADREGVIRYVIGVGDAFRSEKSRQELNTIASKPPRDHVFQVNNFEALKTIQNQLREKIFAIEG
Output: the number by itself.

Record excerpt, results attached:
binder Clone 5 149-014-5 (VL-Linker-VH) (scFv, From the naive human scFv phage display library) scFv: SSELTQDPAVSVALGQTVRITCQGDSLRSYYASWYQQKPGQAPVLVIYGKNNRPSGIPDRFSGSTSGNFASLTITGAQAEDGADYYCHSRDSSGNHLVFGGGTKLTVLGEGKSSGSGSESKASEVQLVQSGAEVKKPGESLKISCKGSGYSFTSYWIGWVRQMPGKGLEWMGIIYPGDSDTRYSPSFQGQVTISADKSISTAYLQWSSLKASDTAMYYCARRARGAFDIWGQGTLVTVSS , Absorbance at 450 nM observed: 1.78

binder Clone 14 149-014-14 (VK-Linker-VH) (scFv, From the naive human scFv phage display library) scFv: DVVMTQSPLSLPATLGQPASISCRSSQSLVYTDGNTYLNWFQQRPGQSPRRLIYKVSNRDSGVPDRFSGSGSGTHFTLKISRVEAEDVGVYYCMQGTHWPPTFGQGTKVEIKEGKSSGSGSESKASEVQLVQSGAEVKKPGASVKVSCKASGGTFSSYAISWVRQAPGQGLEWMGGIIPIFGTANYAQKFQGRVTITADESTSTAYMELSSLRSEDTAVYYCASSGVDYWGQGTLVTVSS , Absorbance at 450 nM observed: 0.22

binder Clone 13 149-014-13 VH only (other) VH: EVQLLESGGGLVQPGGSLRLSCAASGFTFSSDLMSWVRQAPGKGLEWVSAISGSGGSTYYADSVKGRFTISRDNSKNTLYLQMNSLRAEDTAVYYCAKNEVIFDYWGQGTLVTVSSASTKGLSMFDYWGQGTKVEIK , Absorbance at 450 nM observed: 0.169

Others:
binder Clone 6 149-014-6 (VL-linker-VH) (scFv, From the naive human scFv phage display library) scFv: QSVLTQPPSASGTPGQRVTISCSGSSSNIGSNYVSWYQQLPGTAPKLLIYDNNKRPSGIPDRFSGSKSGTSATLGITGLQTGDEADYYCGTWDSSLSALYVFGAGTKLTVLGEGKSSGSGSESKASQVQLQESGPGLVKPSETLSLTCSVSGGSTSSYYWSWIRQPPGKGLEWIGYISNSGSTNYNPSLKSRVTMSIDTSNNQFSLKLSSVTAADTAVYYCASHLGATWRWGQGTLVTVSS , Absorbance at 450 nM observed: 0.567
